Study Target: Nociceptin receptor (Homo sapiens)
Sequence (P41146 whole entry): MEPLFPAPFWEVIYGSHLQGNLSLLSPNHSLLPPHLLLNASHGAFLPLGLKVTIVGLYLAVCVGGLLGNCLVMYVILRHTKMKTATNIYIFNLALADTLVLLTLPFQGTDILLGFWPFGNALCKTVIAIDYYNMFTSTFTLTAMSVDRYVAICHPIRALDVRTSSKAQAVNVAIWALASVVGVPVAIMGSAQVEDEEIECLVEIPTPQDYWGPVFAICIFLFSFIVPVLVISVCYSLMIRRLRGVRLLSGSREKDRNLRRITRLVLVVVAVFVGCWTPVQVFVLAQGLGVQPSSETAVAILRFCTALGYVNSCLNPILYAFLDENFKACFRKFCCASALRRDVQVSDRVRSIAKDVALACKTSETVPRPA
Assay Notes: Binding affinity against human opioid receptor like 1 (hORL) was determined using [leucyl-3H]nociceptin in vitro in CHO cells
pKi: −log10 of the molar value.

| Compound | Operator Symbol | pKi |
| --- | --- | --- |
| CC(=O)N[C@@H](CCCN=C(N)N)C(=O)N[C@H](CC1CCCCC1)C(=O)N[C@H]1CC[C@H]2CCC[C@@H](C(=O)N[C@H](CCCNC(N)=O)C(N)=O)N2C1=O | < | 5.30 |
| CC(=O)N[C@@H](CCCN=C(N)N)C(=O)N[C@H](CC1CCCCC1)C(=O)N[C@H]1CC[C@@H]2SC[C@@H](C(=O)N[C@H](CCCN=C(N)N)C(=O)NC(Cc3ccc(Cl)cc3)C(N)=O)N2C1=O (stereo not given in full) | = | 7.47 |
| CC(=O)N[C@@H](CCCN=C(N)N)C(=O)N[C@H](CC1CCCCC1)C(=O)N[C@H]1CC[C@H]2CCC[C@@H](C(=O)N[C@H](CCCN=C(N)N)C(=O)N[C@H](Cc3ccc(Cl)cc3)C(N)=O)N2C1=O | = | 7.57 |
| CC(=O)N[C@@H](CCCN=C(N)N)C(=O)N[C@H](CC1CCCCC1)C(=O)N[C@H]1CC[C@H]2CCC[C@@H](C(=O)N[C@H](CCCNC(N)=O)C(=O)N[C@H](Cc3ccc(Cl)cc3)C(N)=O)N2C1=O | < | 5.30 |
| CC(=O)N[C@@H](CCCNC(N)=O)C(=O)N[C@H](CC1CCCCC1)C(=O)N[C@H]1CC[C@H]2CCC[C@@H](C(=O)N[C@H](CCCN=C(N)N)C(=O)N[C@H](Cc3ccc(Cl)cc3)C(N)=O)N2C1=O | = | 7.14 |

====

Study Target: Kappa-type opioid receptor (Homo sapiens)
Sequence (P41145 whole entry): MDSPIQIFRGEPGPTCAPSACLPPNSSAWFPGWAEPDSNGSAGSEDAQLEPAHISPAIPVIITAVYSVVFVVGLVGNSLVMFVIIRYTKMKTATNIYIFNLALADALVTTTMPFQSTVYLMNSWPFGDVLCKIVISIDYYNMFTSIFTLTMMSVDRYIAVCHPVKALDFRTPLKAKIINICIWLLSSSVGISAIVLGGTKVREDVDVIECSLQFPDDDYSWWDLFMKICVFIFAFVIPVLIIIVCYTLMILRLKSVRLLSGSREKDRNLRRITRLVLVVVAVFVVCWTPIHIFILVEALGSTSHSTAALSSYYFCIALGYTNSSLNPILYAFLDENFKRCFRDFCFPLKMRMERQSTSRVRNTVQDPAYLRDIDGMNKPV
Assay Notes: Binding affinity against human Opioid receptor kappa 1 (hKOR) was determined using [3H]diprenorphine in vitro in CHO cells
Format: cell-based
Reported Ki is given for each of the following molecules.

| Molecule | Ki |
| --- | --- |
| CC(=O)N[C@@H](CCCN=C(N)N)C(=O)N[C@H](CC1CCCCC1)C(=O)N[C@H]1CC[C@H]2CCC[C@@H](C(=O)N[C@H](CCCN=C(N)N)C(=O)N[C@H](Cc3ccc(Cl)cc3)C(N)=O)N2C1=O | 105 nM |
| CC(=O)N[C@@H](CCCNC(N)=O)C(=O)N[C@H](CC1CCCCC1)C(=O)N[C@H]1CC[C@H]2CCC[C@@H](C(=O)N[C@H](CCCN=C(N)N)C(=O)N[C@H](Cc3ccc(Cl)cc3)C(N)=O)N2C1=O | 4270 nM |
| CC(=O)N[C@@H](CCCN=C(N)N)C(=O)N[C@H](CC1CCCCC1)C(=O)N[C@H]1CC[C@@H]2SC[C@@H](C(=O)N[C@H](CCCN=C(N)N)C(=O)NC(Cc3ccc(Cl)cc3)C(N)=O)N2C1=O (stereo not given in full) | 78 nM |
| CC(=O)N[C@@H](CCCN=C(N)N)C(=O)N[C@H](CC1CCCCC1)C(=O)N[C@H]1CC[C@H]2CCC[C@@H](C(=O)N[C@H](CCCNC(N)=O)C(N)=O)N2C1=O | > 5000 nM |
| CC(=O)N[C@@H](CCCN=C(N)N)C(=O)N[C@H](CC1CCCCC1)C(=O)N[C@H]1CC[C@H]2CCC[C@@H](C(=O)N[C@H](CCCNC(N)=O)C(=O)N[C@H](Cc3ccc(Cl)cc3)C(N)=O)N2C1=O | > 5000 nM |
